# MEASUREMENT DESCRIPTION: Kinetic solubility of compound in PBS at pH 7.4 incubated for 24 hrs under shaking condition by UPLC-MS analysis
# Assay type: physicochemical
# STATED CONDITIONS: PBS, pH 7.4, read-out: Kinetic_solubility
REPORTED ENDPOINT: solubility kinetic at 24 h

compound="NC1CCc2nc(-c3cccnc3)nc(Nc3cccc(F)c3)c2C1 (stereo unspecified)" result="> 250 µM"

* * *

# MEASUREMENT DESCRIPTION: Clearance in C57B6/J mouse at 10 mg/kg, ip administered as single dose by UPLC/MS TQD analysis
# Format: ADME, organism-based
# STATED CONDITIONS: in vivo
REPORTED ENDPOINT: CL/F (mL/min)

compound="CN(C)c1ccc(Nc2nc(-c3ccncc3)nc3c2CC(N)CC3)cc1 (stereo unspecified)" value_units=mL/min numeric_value=116

* * *

# MEASUREMENT DESCRIPTION: Kinetic solubility of compound in PBS at pH 7.4 incubated for 24 hrs under shaking condition by UPLC-MS analysis
# Type: physicochemical
# STATED CONDITIONS: buffer, pH 7.4, 24 h
REPORTED ENDPOINT: Kinetic_solubility

molecule="CN(C)c1ccc(Nc2nc(-c3ccncc3)nc3c2CC(N)CC3)cc1 (centres undefined)" reported_endpoint=Kinetic_solubility result="> 250 µM"
molecule="NC1CCc2nc(-c3ccncc3)nc(Nc3ccc(F)cc3)c2C1 (centres undefined)" reported_endpoint=Kinetic_solubility result="> 250 µM"
molecule="NC1CCc2nc(-c3ccncc3)nc(Nc3cccc(F)c3)c2C1 (racemic)" reported_endpoint=Kinetic_solubility result="126 µM"
molecule="COc1cccc(Nc2nc(-c3ccncc3)nc3c2CC(N)CC3)c1 (centres undefined)" reported_endpoint=Kinetic_solubility result="> 250 µM"

* * *

# MEASUREMENT DESCRIPTION: in vitro
# STATED CONDITIONS: mouse, liver microsomes
Reported half-life at 1 h, 4.6 µM values for the following compounds.
REPORTED ENDPOINT: half-life at 1 h, 4.6 µM

compound="COc1cccc(Nc2nc(-c3ccncc3)nc3c2CC(N)CC3)c1 (stereo not drawn)" result="> 1 h"
compound="NC1CCc2nc(-c3ccncc3)nc(Nc3ccc(F)cc3)c2C1 (stereo not drawn)" result="> 1 h"
compound="NC1CCc2nc(-c3cccnc3)nc(Nc3cccc(F)c3)c2C1 (stereo not drawn)" result="> 1 h"
